biological target: human recombinant HDAC6 (Homo sapiens, UniProt Q9UBN7); construct: purchased Calbiochem Inc. 382180; experiment: HDAC6 enzyme activity inhibition (HDAC Fluorimetric Drug Discovery Kit); assay type: biochemical; settings: human recombinant HDAC6; IC50 calculated with GraphPad Prism
Sequence (Q9UBN7 whole entry): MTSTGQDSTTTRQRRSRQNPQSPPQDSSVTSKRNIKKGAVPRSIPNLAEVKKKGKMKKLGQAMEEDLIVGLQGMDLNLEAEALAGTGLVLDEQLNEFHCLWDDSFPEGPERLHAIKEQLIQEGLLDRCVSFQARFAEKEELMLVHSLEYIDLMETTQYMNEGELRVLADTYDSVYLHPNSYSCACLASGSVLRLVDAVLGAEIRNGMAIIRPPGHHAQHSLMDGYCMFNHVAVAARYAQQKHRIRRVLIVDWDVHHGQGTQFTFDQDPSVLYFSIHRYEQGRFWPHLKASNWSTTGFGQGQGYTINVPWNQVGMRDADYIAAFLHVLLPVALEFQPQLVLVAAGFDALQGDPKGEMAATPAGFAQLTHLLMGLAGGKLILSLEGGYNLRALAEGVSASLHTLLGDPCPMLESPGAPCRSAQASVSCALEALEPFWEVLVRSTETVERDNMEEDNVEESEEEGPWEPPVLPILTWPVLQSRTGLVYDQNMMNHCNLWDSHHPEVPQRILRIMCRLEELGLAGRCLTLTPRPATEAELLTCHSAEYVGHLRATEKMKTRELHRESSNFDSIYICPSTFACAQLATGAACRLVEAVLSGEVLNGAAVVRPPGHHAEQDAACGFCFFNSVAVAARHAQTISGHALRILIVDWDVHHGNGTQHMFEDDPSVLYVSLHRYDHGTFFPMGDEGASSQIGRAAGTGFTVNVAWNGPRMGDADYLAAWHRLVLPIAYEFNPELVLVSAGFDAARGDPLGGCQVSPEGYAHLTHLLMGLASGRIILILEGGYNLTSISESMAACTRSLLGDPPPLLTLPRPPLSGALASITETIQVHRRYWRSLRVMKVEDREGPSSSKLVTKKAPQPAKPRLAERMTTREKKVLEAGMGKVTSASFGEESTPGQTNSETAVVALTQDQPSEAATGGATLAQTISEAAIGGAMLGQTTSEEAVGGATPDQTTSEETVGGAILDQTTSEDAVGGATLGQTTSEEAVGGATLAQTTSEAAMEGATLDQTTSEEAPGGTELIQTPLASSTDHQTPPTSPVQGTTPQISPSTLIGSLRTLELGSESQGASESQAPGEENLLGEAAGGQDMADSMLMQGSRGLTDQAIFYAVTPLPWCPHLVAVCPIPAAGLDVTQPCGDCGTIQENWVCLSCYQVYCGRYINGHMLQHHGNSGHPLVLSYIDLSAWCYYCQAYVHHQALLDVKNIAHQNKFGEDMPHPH
observable: IC50 (nM)
Please state the figure in nM; there is no need to write the unit.

// worked examples, IC50 included
{"chemical string": "CC(C)N1CCC(Nc2ccc(F)c(-c3cn(Cc4ccc(-c5nnc(C(F)F)o5)cc4F)nn3)c2)CC1", "units of measure": "nM", "IC50": 36.5}
{"chemical string": "Fc1cc(-c2nnc(C(F)F)o2)ccc1Cn1cc(-c2cccc(N3CCN(C4CCC4)CC3)c2)nn1", "units of measure": "nM", "IC50": 45.7}

// moving on: another record for IC50
Challenge: // lookup IC50 for "CC(=O)N1CC(c2cn(Cc3ccc(-c4nnc(C(F)F)o4)cn3)nn2)C1"
Response given: 536
